Provide the recorded IC50 for the entries that follow.
# assayName: LTB4 receptor binding from radioligand binding assay using guinea pig spleen cell membrane
Dear colleague, please return just the value in nM, with no unit written.

Incoming: # IC50 lookup, item C/C(=C\c1cn(CC(=O)N(C)CCc2ccccc2)c2ccc(OCc3ccccc3)cc12)C(=O)O
Outgoing: 5

Incoming: Recorded IC50 of CN(CCc1ccccc1)C(=O)Cn1cc(C(=O)O)c2c(OCc3ccccc3)cccc21 , please.
Outgoing: 1.45

Incoming: Looking for the measured IC50 of CN(CCc1ccccc1)C(=O)Cc1cc(/C=C/C(=O)O)cc2c(Oc3ccccc3)cccc12 , can you help?
Outgoing: 2

Incoming: Quick one: IC50 for CN(CCc1ccccc1)C(=O)Cn1cc(C(=O)c2cccc(C(=O)O)c2)c2cc(OCc3ccccc3)ccc21 ?
Outgoing: 12

Incoming: Can you share its IC50? I mean this molecule: CN(CCc1ccccc1)C(=O)Cn1cc(/C=C/C(=O)O)c2cc(OCc3ccccc3)ccc21
Outgoing: 4.3

Incoming: Given CN(CCc1ccccc1)C(=O)Cc1cc(C(=O)O)c(OCc2ccccc2)c2ccccc12 , state its recorded IC50.
Outgoing: 6.5

Incoming: Quick one: IC50 for CN(CCc1ccccc1)C(=O)Cn1cc(CCC(=O)O)c2cc(OCc3ccccc3)ccc21 ?
Outgoing: 40

Incoming: Can you look up the measured IC50 of CN(CCc1ccccc1)C(=O)Cn1cc(/C=C/C=C/C(=O)O)c2c(OCc3ccccc3)cccc21 for me?
Outgoing: 1.5

Incoming: What measured IC50 goes with CN(CCc1ccccc1)C(=O)Cn1cc(/C=C/C(=O)O)c2c(OCc3ccccc3)cccc21 ?
Outgoing: 1

Incoming: Which IC50 reading was recorded for the molecule CN(CCc1ccccc1)C(=O)Cc1cc(/C=C/C(=O)O)cc2c(OCc3ccccc3)cccc12 ?
Outgoing: 0.58

Incoming: Reported IC50, molecule CN(CCc1ccccc1)C(=O)Cn1cc(/C=C/C2N=NN=N2)c2cc(OCc3ccccc3)ccc21 : ____
Outgoing: 4.5

Incoming: Can you look up the measured IC50 of CN(CCc1ccccc1)C(=O)Cc1cc(/C=C/C(=O)O)cc2c(-c3ccccc3)cccc12 for me?
Outgoing: 1

Incoming: Need IC50 of CN(CCc1ccccc1)C(=O)Cn1cc(/C=C/C=C/C(=O)O)c2cc(OCc3ccccc3)ccc21 , thanks.
Outgoing: 8

Incoming: Tell me the measured IC50 of CN(CCc1ccccc1)C(=O)Cc1cc(/C=C/C2N=NN=N2)cc2c(OCc3ccccc3)cccc12 , please.
Outgoing: 3

Incoming: Give the measured IC50 of CC/C(=C\c1cn(CC(=O)N(C)CCc2ccccc2)c2ccc(OCc3ccccc3)cc12)C(=O)O .
Outgoing: 1.3

Incoming: # lookup: IC50 of CN(CCc1ccccc1)C(=O)Cc1cc(CCC(=O)O)cc2c(Oc3ccccc3)cccc12
Outgoing: 20

Incoming: # query: IC50 of entry CN(CCc1ccccc1)C(=O)Cc1cc(/C=C/C=C/C(=O)O)cc2c(OCc3ccccc3)cccc12
Outgoing: 1
